Test system: Influenza A virus
Experiment: Inhibition of Influenza A virus wild type M2 proton channel expressed in Xenopus laevis oocyte at 100 uM after 2 mins by two-electrode […] clamp assay
Attribute: inhibition
Measurement type: inhibition (%)

> print(dat)
                                   compound  endpoint.result
1          c1ccc(CNC23CC4CC(CC(C4)C2)C3)nc1               12
2  O=[N+]([O-])c1ccc(CNC23CC4CC(CC(C4)C2)C3)cc1               49
3        Oc1cc(F)ccc1CNC12CC3CC(CC(C3)C1)C2               87
4          COc1ccccc1CNC12CC3CC(CC(C3)C1)C2               22
5     COc1ccc(CNC23CC4CC(CC(C4)C2)C3)c(O)c1               56
6  OC1CCC(CNC23CC4CC(CC(C4)C2)C3)CC1 (racemic)               16
